property-measured: melting point

Q. melting point for CCCCCCCCC1(CCCCCCCC)c2cc([N+](=O)[O-])ccc2-c2ccc([N+](=O)[O-])cc21 ?
A. 69 to 73 °C

Q. Moving on to the next molecule: O=C(O)c1cc(C(F)(F)F)cc([N+](=O)[O-])c1O
A. 166 to 168 °C

Q. Moving on to the next molecule: CC(C)(C)[C@H](COC(=O)OCc1ccccc1)NC(=O)[C@@H](CC(=O)OCc1ccccc1)n1ccc(-c2ccc(-c3ccncc3)cc2)c1
A. 74 to 76 °C

Q. Moving on to the next molecule: COCc1cccc2oc(C(=O)Nc3ccc(-c4ccc(S(=O)(=O)N(C)C(C(=O)O)C(C)C)cc4)cc3)c(C)c12 (centres undefined)
A. 144 to 146 °C

====

Listing of recorded melting point by entry.

Field: example entries. Status: answers known.
chemical-smiles: COc1ccc(NC(=O)c2ccccc2)cc1Nc1ccccc1
melting point: 209 to 210 °C

chemical-smiles: COC(=O)CCCCc1cc2nc(Cl)ccc2n1S(=O)(=O)c1ccccc1
melting point: 73 °C

chemical-smiles: Cc1ccc2c(c1)N=C(Cl)c1cscc1O2
melting point: 208 to 209 °C

chemical-smiles: O=C(NCCNCc1cc2cc(OCc3ccccc3)ccc2o1)C12CC3CC(CC(C3)C1)C2
melting point: 169 to 170 °C

chemical-smiles: CCCCCCCCCCCCCCCCCC(=O)OC[C@H]1OCC(=NO)[C@@H](O)[C@@H]1O
melting point: 99 to 105 °C

chemical-smiles: COc1cc2[nH]c(=O)c3c(c2cc1OC)CCN(CCN(C)C)C3
melting point: 160 to 164 °C

chemical-smiles: CC(=O)N(C(=O)N(C)C)c1snc(C(C)C)c1C#N
melting point: 128 to 130 °C

chemical-smiles: Nc1nc(/C(=N/OC2(C(=O)OCc3ccc([N+](=O)[O-])cc3)CCCCC2)C(=O)O)cs1
melting point: 184 to 185 °C

Q. melting point for CNC(=NC#N)Nc1cccc(C(=O)NCCSCc2ccc(CN(C)C)o2)c1 ?
A. 140 to 142 °C

Q. Moving on to the next compound: CSc1noc(-c2ccc(OCCCOc3ccccc3)cc2)c1C#N
A. 121 to 123 °C

====

Listing of recorded melting point by entry.

Field: example entries. Status: answers known.
compound: CCOC(=O)c1cnc2c(c(C)nn2CC)c1O
property-measured: melting point
value-observed: 91 to 93 °C
--
compound: CN(C)c1ccc(-n2c(N)nc3ccccc32)cc1-c1ccco1
property-measured: melting point
value-observed: 208 to 210 °C
--
compound: CCCN(CCC)[C@H]1Cc2c[nH]c3ccc(C(=O)NN)c(c23)C1
property-measured: melting point
value-observed: 137 to 138 °C
--
compound: CN(C)C1CCc2[nH]c3cc(OCc4ccccc4)ccc3c2C1 (stereo not given)
property-measured: melting point
value-observed: 237 to 239 °C

The record that follows has no melting point shown yet.
Q. melting point for N=C(NO)c1ncn2c(C(F)(F)F)cc(-c3ccc(C(F)(F)F)cc3)nc12 ?
A. 213 °C

====

Listing of recorded melting point by entry.

Field: example entries. Status: answers known.
compound: C#CCN(c1nc(C)n(-c2ccc(Cl)cc2Cl)n1)c1cc(C)ccc1OC
melting point: 116 °C
--
compound: CC1CC(C)CN(C(=O)C2Cc3ccccc3N2C(=O)OC(C)(C)C)C1 (stereo not given)
melting point: 148 to 149 °C
--
compound: CC1(C)C2=C(CCC2=O)c2ccccc21
melting point: 114 °C
--
compound: N#CN=C(Nc1cccc(F)c1)NC(NC(=O)c1ccc(Cl)cc1)c1ccsc1 (stereo not given)
melting point: 166 to 168 °C
--
compound: COc1ccc(-n2c(=O)c(O)nc3cccnc32)cc1
melting point: > 300 °C
--
compound: CCc1nc2c(cnn2CC)c(NC2CCOCC2)c1CNC(=O)c1cccc(C(=O)NCc2cc(Cl)cc(Br)c2)c1
melting point: 109 to 112 °C
--
compound: O=C(Nc1cccnc1)N1CCc2cc(I)c(Cl)cc21
melting point: > 200 °C
--
compound: Clc1ccc2[nH]c(-c3ccccc3)cc2c1
melting point: 195 to 196 °C

Q. melting point for CC(=O)NCc1ccc(-c2ccc([N+](=O)[O-])cc2)o1 ?
A. 149 to 151 °C

Q. Moving on to the next compound: O=C(/C=C/[C@@H]1[C@H]2CC(=O)O[C@H]2C[C@H]1OC(=O)c1ccc(-c2ccccc2)cc1)CCc1ccccc1
A. 129 to 130 °C
